TARGET_OR_TEST_SYSTEM: Adenosine receptor A3 (Homo sapiens) (UniProt P0DMS8)
Sequence (P0DMS8 whole entry): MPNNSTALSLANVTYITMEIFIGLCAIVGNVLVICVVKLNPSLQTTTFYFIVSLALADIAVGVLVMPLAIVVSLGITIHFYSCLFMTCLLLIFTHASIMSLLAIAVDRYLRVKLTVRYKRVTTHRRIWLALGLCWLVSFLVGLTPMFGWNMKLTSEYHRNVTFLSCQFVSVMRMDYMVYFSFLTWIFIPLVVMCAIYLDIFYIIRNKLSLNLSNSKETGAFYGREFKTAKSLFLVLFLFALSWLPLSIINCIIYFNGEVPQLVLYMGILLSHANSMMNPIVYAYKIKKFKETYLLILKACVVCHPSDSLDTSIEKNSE
EXPERIMENT: Displacement of specific [125I]AB-MECA binding from human Adenosine A3 receptor expressed in HEK293 cells
Type: cell-based
Set-up: concentration or dose not given beside the values

COMPOUND: O=c1cc(-c2ccccc2)oc2cc(O)ccc12
TARGET_OR_TEST_SYSTEM: Adenosine receptor A3 (Homo sapiens) (UniProt P0DMS8)
QUALIFIER_SIGN: =
Displacement / %: 41

COMPOUND: O=C1c2cc(O)c(O)cc2C2c3ccc(O)c(O)c3OCC12O (centres undefined)
TARGET_OR_TEST_SYSTEM: Adenosine receptor A3 (Homo sapiens) (UniProt P0DMS8)
QUALIFIER_SIGN: <
Displacement / %: 10

COMPOUND: CCn1c2c(c3cc4c(cc3c1=O)OCO4)C(=O)CCC2
TARGET_OR_TEST_SYSTEM: Adenosine receptor A3 (Homo sapiens) (UniProt P0DMS8)
QUALIFIER_SIGN: =
Displacement / %: 19

COMPOUND: COc1cc2c3c(c1)c1cc4c(cc1c(=O)n3CC2)OCO4
TARGET_OR_TEST_SYSTEM: Adenosine receptor A3 (Homo sapiens) (UniProt P0DMS8)
QUALIFIER_SIGN: <
Displacement / %: 10

---

# Displacement listing for each entry below
TARGET_OR_TEST_SYSTEM: UniProt P30543
Sequence (P30543 whole entry): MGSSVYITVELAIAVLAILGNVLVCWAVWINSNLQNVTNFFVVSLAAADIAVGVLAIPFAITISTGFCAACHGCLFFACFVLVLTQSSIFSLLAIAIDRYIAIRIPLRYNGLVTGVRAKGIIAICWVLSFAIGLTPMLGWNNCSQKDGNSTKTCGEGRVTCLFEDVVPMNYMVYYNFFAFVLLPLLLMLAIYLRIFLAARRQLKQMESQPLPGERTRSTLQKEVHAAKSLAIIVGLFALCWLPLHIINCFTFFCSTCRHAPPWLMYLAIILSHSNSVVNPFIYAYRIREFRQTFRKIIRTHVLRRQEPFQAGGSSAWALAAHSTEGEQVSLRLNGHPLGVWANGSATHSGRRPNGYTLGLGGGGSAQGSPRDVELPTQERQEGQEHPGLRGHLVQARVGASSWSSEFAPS
EXPERIMENT: Displacement of [3H]-CGS- 21680 from Adenosine A2A receptor in rat striatal membranes at 10e-4 M
Format: cell membranes
EXPERIMENTAL_CONDITIONS: Membrane

COMPOUND: O=c1cc(-c2ccccc2)oc2ccc3ccccc3c12
Displacement: < 10%

COMPOUND: O=C1c2cc(O)c(O)cc2C2c3ccc(O)c(O)c3OCC12O (stereo not given)
Displacement: 28%

COMPOUND: COc1cc2c3c(c1)c1cc4c(cc1c(=O)n3CC2)OCO4
Displacement: < 10%

COMPOUND: COc1ccc(-c2cc(=O)c3c(O)cc(OC)cc3o2)cc1
Displacement: < 10%

COMPOUND: COC1C=CC23c4cc5c(cc4C[N+](C)(CC2OC(C)=O)C3C1)OCO5 (stereo not given)
Displacement: < 10%

---

TARGET_OR_TEST_SYSTEM: UniProt P0DMS8
EXPERIMENT: Displacement of specific [125I]AB-MECA binding from human Adenosine A3 receptor expressed in HEK293 cells
Type: cell-based
Design: concentration or dose not given beside the values
MEASURED_ATTRIBUTE: Displacement (%)

COMPOUND: O=c1cc(-c2ccccc2)oc2ccc3ccccc3c12
MEASURED_ATTRIBUTE: Displacement
UNITS_LABEL: %
QUALIFIER_SIGN: =
RECORDED_NUMBER: 12

COMPOUND: COc1cc2c(c(O)c1OC)c(=O)c1ccccc1n2C
MEASURED_ATTRIBUTE: Displacement
UNITS_LABEL: %
QUALIFIER_SIGN: =
RECORDED_NUMBER: 63

COMPOUND: COc1ccc(-c2cc(=O)c3ccc(O)cc3o2)cc1OC
MEASURED_ATTRIBUTE: Displacement
UNITS_LABEL: %
QUALIFIER_SIGN: =
RECORDED_NUMBER: 32

COMPOUND: COc1ccc(-c2cc(=O)c3c(O)cc(OC)cc3o2)cc1
MEASURED_ATTRIBUTE: Displacement
UNITS_LABEL: %
QUALIFIER_SIGN: =
RECORDED_NUMBER: 69

COMPOUND: O=c1cc(-c2ccc(O)cc2)oc2cc(O)cc(O)c12
MEASURED_ATTRIBUTE: Displacement
UNITS_LABEL: %
QUALIFIER_SIGN: =
RECORDED_NUMBER: 63

COMPOUND: COc1c(O)cc2oc(-c3ccc(O)cc3)cc(=O)c2c1O
MEASURED_ATTRIBUTE: Displacement
UNITS_LABEL: %
QUALIFIER_SIGN: =
RECORDED_NUMBER: 63

COMPOUND: O=C1c2ccccc2-c2cc3c(cc21)OCO3
MEASURED_ATTRIBUTE: Displacement
UNITS_LABEL: %
QUALIFIER_SIGN: =
RECORDED_NUMBER: 52

COMPOUND: O=c1c(-c2ccc(O)cc2)coc2cc(O)cc(O)c12
MEASURED_ATTRIBUTE: Displacement
UNITS_LABEL: %
QUALIFIER_SIGN: =
RECORDED_NUMBER: 20

COMPOUND: COC1C=CC23c4cc5c(cc4C[N+](C)(CC2OC(C)=O)C3C1)OCO5 (configuration not stated)
MEASURED_ATTRIBUTE: Displacement
UNITS_LABEL: %
QUALIFIER_SIGN: <
RECORDED_NUMBER: 10

COMPOUND: COc1cc2c3c(oc(=O)c2cc1OC)CCCC3=O
MEASURED_ATTRIBUTE: Displacement
UNITS_LABEL: %
QUALIFIER_SIGN: <
RECORDED_NUMBER: 10

COMPOUND: O=c1cc(-c2ccccc2)oc2c1ccc1ccccc12
MEASURED_ATTRIBUTE: Displacement
UNITS_LABEL: %
QUALIFIER_SIGN: =
RECORDED_NUMBER: 71

COMPOUND: O=c1cc(-c2ccccc2)oc2cccc(O)c12
MEASURED_ATTRIBUTE: Displacement
UNITS_LABEL: %
QUALIFIER_SIGN: =
RECORDED_NUMBER: 47
